STUDY_TARGET: Fn14-TWEAK binding (Homo sapiens, UniProt Q9NP84)
Construct: the human Fc fragment-tagged Fn14 extracellular domain (R&D Systems) was captured; purchased R&D Systems (Fn14-Fc); Peprotech (recombinant TWEAK)
Sequence (Q9NP84 28-80 limits assumed): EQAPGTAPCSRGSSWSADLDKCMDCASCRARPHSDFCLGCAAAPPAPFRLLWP
EXPERIMENT: Double sandwich ELISA small molecule screening of TWEAK binding to captured Fn14-Fc
CONDITION_LABEL: Table 4, second screening iteration, 25 μM, replicate 2; read-out: % Reduction in TWEAK Binding, Data 2
READOUT_NAME: inhibition at 25 µM (%)

O=C(CSc1nnc(-c2ccccc2)c(-c2ccccc2)n1)Nc1ccccc1 [Compound G003-0114]    11.3
O=C(CSc1nnc(-c2ccccc2)c(-c2ccccc2)n1)Nc1cccc(Cl)c1 [Compound K784-2268]    10.1
O=C(CSc1cccc2cccnc12)Nc1ccc2ccccc2c1 [Compound 4084-0026]    6.85
O=C(c1cn(-c2cccc(Cl)c2)nn1)N1CCSCC1 [Compound L524-0366]    14.9
CCCC(=O)Nc1ccccc1-c1nnc(SC)nc1O [Compound 7033-0155]    20.9
O=C(NC1CC1)c1cn(-c2cccc(Cl)c2)nn1 [Compound L524-0361]    16.7
C=CCSc1nnc(-c2ccccc2NC(=O)CC)c(O)n1 [Compound 6969-1085]    18
Cc1cc(NC(=O)CSc2ccccc2)ccc1Cl [Compound 1068-0114]    4.93

(A) COc1cccc(NC(=O)CSc2nnc(-c3ccc(F)cc3)c(-c3ccc(F)cc3)n2)c1 [Compound K216-0906]
(B) CCn1c(=O)c(S(=O)(=O)c2ccccc2)c(O)c2ccccc21 [Compound C200-7197]
I'm curious whether A or B has the smaller inhibition at 25 µM number. Which is it? Indicate which entry you chose by stating its label.
A

// data source = patent US9238034B2
